System: trypsin biosynthesis
Experiment: Effect of injected TMOF-R analogues on trypsin biosynthesis in Heliothis virescens (BApNA)
Format: in vivo
Details: 10 μg/injection, 2nd instar larvae, 24 hours after injection
Description: Individual second instar larvae of H. virescens were injected with TMOF-R analogues (10 to 0.25 μg per larva) and maintained in separate plastic cups on artificial diet. Twenty-four hours after the injections 3 groups of larvae (3 per group) were assayed for trypsin biosynthesis using BApNA (trypsin specific substrate; Table 5).
Ends that are not written are not given here.
The substances listed here are annotated with their Inhibition (% ± S.E.M.) of trypsin biosynthesis.
Report only the number, with the unit % understood.

Below, each entry is followed by its recorded Inhibition (% ± S.E.M.) of trypsin biosynthesis result.
Substance | Measured result
YDPAFR [YDPAFR] | 0
DPARDPARDPARDPAR [(DPAR)4] | 58
YDPAPPPPPP [YDPAP6, reference compound] | 56

--- query ---
Ask | Fill: Inhibition (% ± S.E.M.) of trypsin biosynthesis (trypsin biosynthesis) for this substance YDPAPR [YDPAPR]
Reply | 53

====

The substances listed here are annotated with their LC50.
Tested on: Aedes aegypti larvae
Assay: Effect of feeding TMOF-R analogues on Aedes aegypti larvae (LC50)
Assay type: in vivo
Conditions: fed in microtiter plates with yeast particles for 5 to 6 days; read-out: LC50 (mM ± S.E.M.)
Ends that are not written are not given here.
Report only the number, with the unit mM understood.

Substance | LC50, mM
YDPAFR [YDPAFR] | 0.15

Ask | Tell me LC50 reported for DPARDPARDPARDPAR [(DPAR)4]
Reply | 0.048

Ask | Tell me LC50 reported for YDPAPPPPPP [YDPAP6, reference compound]
Reply | 0.2

Ask | Tell me LC50 reported for YDPAPR [YDPAPR]
Reply | 0.24

====

Test system: Aedes aegypti larvae
Experiment: Effect of feeding TMOF-R analogues on Aedes aegypti larvae (LC50)
Type: in vivo
Conditions: fed in microtiter plates with yeast particles for 5 to 6 days; read-out: LC50 (mM ± S.E.M.)
Peptide text beside a SMILES is read from it.
Endpoint: LC50

Molecule | LC50
N=C(N)NCCC[C@H](NC(=O)[C@@H]1CCCN1C(=O)[C@H](CC(=O)O)NC(=O)[C@@H](N)Cc1ccc(O)cc1)C(=O)O [YDPR] (H-YDPR-OH; N-terminus and C-terminus assumed) | 0.24 mM

--- query ---
Ask | Tell me LC50 reported for C[C@H](NC(=O)[C@@H]1CCCN1C(=O)[C@@H](N)CC(=O)O)C(=O)N[C@@H](CCCNC(=N)N)C(=O)O [DPAR] (H-DPAR-OH)
Reply | 0.46 mM
